FYI, the data here is from patent US11472803B2.

Target: human M2 receptor (Homo sapiens)
Construct: expressed in transfected cells; host or cells: CHO-DUKX (CHO-DUKX-M2-GIRK)
Sequence (P08172 whole entry): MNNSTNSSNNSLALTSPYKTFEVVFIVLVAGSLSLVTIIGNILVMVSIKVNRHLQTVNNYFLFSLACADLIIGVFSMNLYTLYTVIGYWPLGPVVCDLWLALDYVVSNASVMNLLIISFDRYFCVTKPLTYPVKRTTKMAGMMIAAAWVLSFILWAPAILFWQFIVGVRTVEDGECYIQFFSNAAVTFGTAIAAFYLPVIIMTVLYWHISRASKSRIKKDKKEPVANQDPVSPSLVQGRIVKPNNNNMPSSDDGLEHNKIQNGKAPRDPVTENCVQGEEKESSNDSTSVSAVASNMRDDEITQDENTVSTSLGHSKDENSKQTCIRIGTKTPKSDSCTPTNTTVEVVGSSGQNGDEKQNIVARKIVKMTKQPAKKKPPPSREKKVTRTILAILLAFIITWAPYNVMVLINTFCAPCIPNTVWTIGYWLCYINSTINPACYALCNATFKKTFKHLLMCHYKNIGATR
Test: Functional M2-GIRK1/4 activation test: positive cooperativity (α factor), shift of acetylcholine dose-response curve
Type: cell-based
Settings: Allosteric EC50 shift of acetylcholine 8-point dose-response curve; CHO-DUKX-M2-GIRK cells; α>1 = positive cooperativity
Entries and their measured Cooperativity (alpha factor) follow.
Returns: the value as a bare number; no unit string appended.

# count of solved cases: 5
- molecule: "O=C(NC(C(F)(F)F)C(F)(F)F)c1cn(-c2ncc(F)cc2F)c2nc(N3C[C@@H](O)[C@H](O)C3)c(F)cc2c1=O"
  assay metric: "Cooperativity (alpha factor)"
  assay value: 86
- molecule: "CC(NC(=O)c1cn(-c2c(F)cc(F)cc2F)c2nc(N3CCC[C@@H]3CO)c(F)cc2c1=O)C(F)(F)C(F)(F)F (single isomer, unassigned)"
  assay metric: "Cooperativity (alpha factor)"
  assay value: 24
- molecule: "CCC(COC(F)(F)F)NC(=O)c1cn(-c2c(F)cc(F)cc2F)c2nc(N3C[C@@H](O)[C@H](O)C3)c(F)cc2c1=O (single isomer, unassigned) [Example 32]"
  assay metric: "Cooperativity (alpha factor)"
  assay value: 54
- molecule: "C[C@@H](NC(=O)c1cn(-c2c(F)cc(F)cc2Cl)c2nc(N3C[C@@H](O)[C@H](O)C3)c(F)cc2c1=O)C(F)(F)F (single isomer, unassigned)"
  assay metric: "Cooperativity (alpha factor)"
  assay value: 33
- molecule: "CC(C)[C@@H](C)NC(=O)c1cn(-c2c(F)cc(F)cc2F)c2nc(N3C[C@@H](O)[C@H](O)C3)c(F)cc2c1=O"
  assay metric: "Cooperativity (alpha factor)"
  assay value: 41

Tell me measured Cooperativity (alpha factor) for CC[C@H](NC(=O)c1cn(-c2c(F)cc(F)cc2F)c2nc(N3C[C@@H](O)[C@H](O)C3)c(F)cc2c1=O)C(F)(F)F please.
58
